Provenance of the data: patent US20250082624A1

assay: Phase 1b MAD plasma pharmacokinetics, non-compartmental analysis; format: in vivo, human; details: human, plasma, po, 30 mg, Table 12: Cohort B, 30 mg QD oral, Day 7; mean ± S.D.; read-out: Tmax
Parameter: Tmax (min)
Just the number please, in min, no unit attached.

stdin: Sample CC1(Cc2ccccc2)COc2cc(C(=O)N3CCCCC3)ccc21 (stereo not shown) — what was its Tmax?
stdout: 36

* * *

test: Phase 1b MAD plasma pharmacokinetics, non-compartmental analysis; format: in vivo, human; conditions: human, plasma, po, 30 mg, Cohort B Fed, single 30 mg oral dose after high-fat meal; mean ± SD; read-out: Average of Tmax
Parameter: Tmax

stdin: Which Tmax value belongs to CC1(Cc2ccccc2)COc2cc(C(=O)N3CCCCC3)ccc21 (stereo not shown) ?
stdout: 2.4 h
